Exercise: state measured protein stability index for each of the variants provided.
B1: KCTD10 (parent)
chain: SSKEEQKLIATSNKPAVKLLYNRS

# Variants of: B1
# Experimental protocol: protein stability index of a GFP-peptide fusion (GPS, HEK-293T) (PSI 1-6); higher = more stable;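 note: lentivirally expressed fusions sorted by FACS into six bins by GFP to DsRed ratio, PSI derived from sequencing read proportions per bin multiplied by bin number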
# Conditions: c terminus: a fixed tail appended
One number for each entry.

> print(dat)
                   sequence.chain       attribute.measured  measurement
1  QSKEEQKLIATSNKPAVKLLYNRS [S1Q]  protein stability index         4.22

Each variant below has a recorded value; state its protein stability index.
1. SSKEEQKLIATSNKPAVKLLYARS [N22A]
2. SSKEEQKLIATSNKPAVKYLYNRS [L19Y]
3. SSKEEQKLIATSDKPAVKLLYNRS [N13D]
4. SPKEEQKLIATSNKPAVKLLYNRS [S2P]
5. SSKEEQKLIATSNKPATKLLYNRS [V17T]
6. SSHEEQKLIATSNKPAVKLLYNRS [K3H]

A.
1: 3.84; 2: 4.56; 3: 4.73; 4: 4.45; 5: 4.28; 6: 4.23

Reference for the values: the supplement of paper PMC10567573
